# assayed_system: Insulin receptor (Homo sapiens, UniProt P06213)
# Sequence (P06213 28-758 limits assumed): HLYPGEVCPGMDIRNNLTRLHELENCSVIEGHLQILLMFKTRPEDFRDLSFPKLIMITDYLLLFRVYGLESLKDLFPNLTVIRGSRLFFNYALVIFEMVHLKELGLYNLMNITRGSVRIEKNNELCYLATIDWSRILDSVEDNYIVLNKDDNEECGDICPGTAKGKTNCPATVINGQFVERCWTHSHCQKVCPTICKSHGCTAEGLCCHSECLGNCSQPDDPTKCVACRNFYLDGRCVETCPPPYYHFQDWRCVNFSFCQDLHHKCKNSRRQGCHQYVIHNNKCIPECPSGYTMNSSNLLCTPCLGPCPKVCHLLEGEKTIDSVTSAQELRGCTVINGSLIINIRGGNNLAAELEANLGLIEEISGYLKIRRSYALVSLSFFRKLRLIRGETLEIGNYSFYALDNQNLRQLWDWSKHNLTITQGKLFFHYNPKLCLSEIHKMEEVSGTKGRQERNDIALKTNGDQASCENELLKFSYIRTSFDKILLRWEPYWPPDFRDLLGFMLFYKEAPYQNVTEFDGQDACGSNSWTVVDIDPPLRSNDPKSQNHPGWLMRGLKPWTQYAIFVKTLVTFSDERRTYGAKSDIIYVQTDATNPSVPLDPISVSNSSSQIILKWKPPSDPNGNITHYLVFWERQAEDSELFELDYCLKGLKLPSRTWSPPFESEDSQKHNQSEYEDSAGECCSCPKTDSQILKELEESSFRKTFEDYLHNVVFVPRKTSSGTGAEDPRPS
# Sequence (P06213 763-1382 limits assumed): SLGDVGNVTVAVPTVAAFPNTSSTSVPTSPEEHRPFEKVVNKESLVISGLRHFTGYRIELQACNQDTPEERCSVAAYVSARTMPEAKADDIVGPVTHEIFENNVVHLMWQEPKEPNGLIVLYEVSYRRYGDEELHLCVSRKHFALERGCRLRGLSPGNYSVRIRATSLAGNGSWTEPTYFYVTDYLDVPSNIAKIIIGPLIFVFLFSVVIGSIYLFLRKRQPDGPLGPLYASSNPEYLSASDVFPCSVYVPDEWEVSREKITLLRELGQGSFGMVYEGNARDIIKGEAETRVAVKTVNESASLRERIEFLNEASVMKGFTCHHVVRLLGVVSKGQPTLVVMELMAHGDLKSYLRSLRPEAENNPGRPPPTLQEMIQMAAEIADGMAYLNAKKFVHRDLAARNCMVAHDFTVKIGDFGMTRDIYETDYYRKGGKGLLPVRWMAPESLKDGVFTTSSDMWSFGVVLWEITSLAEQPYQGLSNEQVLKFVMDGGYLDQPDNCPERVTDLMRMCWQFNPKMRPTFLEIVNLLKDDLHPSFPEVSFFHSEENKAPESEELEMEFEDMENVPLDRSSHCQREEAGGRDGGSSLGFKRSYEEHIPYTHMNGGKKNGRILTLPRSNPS
Catalogue of IC50 readings, one per entry.
All answers are understood in µM, so give the number only.

{"molecule": "CNC(=N)SCCCN1C(=O)C2=C(C1=O)n1ccc3cccc(c31)C1Cc3ccccc3N21 (configuration not stated)", "IC50, µM": 5.1}

Next:
Challenge: In one line, give reported IC50 of the entry "CNC(=N)SCCCn1c(=O)c2c(c1=O)n1c3ccccc3cc1c1cccc3ccn2c31" .
Response given: 6.3

----------
# assayed_system: UniProt:P09619
# Sequence (P09619 whole entry): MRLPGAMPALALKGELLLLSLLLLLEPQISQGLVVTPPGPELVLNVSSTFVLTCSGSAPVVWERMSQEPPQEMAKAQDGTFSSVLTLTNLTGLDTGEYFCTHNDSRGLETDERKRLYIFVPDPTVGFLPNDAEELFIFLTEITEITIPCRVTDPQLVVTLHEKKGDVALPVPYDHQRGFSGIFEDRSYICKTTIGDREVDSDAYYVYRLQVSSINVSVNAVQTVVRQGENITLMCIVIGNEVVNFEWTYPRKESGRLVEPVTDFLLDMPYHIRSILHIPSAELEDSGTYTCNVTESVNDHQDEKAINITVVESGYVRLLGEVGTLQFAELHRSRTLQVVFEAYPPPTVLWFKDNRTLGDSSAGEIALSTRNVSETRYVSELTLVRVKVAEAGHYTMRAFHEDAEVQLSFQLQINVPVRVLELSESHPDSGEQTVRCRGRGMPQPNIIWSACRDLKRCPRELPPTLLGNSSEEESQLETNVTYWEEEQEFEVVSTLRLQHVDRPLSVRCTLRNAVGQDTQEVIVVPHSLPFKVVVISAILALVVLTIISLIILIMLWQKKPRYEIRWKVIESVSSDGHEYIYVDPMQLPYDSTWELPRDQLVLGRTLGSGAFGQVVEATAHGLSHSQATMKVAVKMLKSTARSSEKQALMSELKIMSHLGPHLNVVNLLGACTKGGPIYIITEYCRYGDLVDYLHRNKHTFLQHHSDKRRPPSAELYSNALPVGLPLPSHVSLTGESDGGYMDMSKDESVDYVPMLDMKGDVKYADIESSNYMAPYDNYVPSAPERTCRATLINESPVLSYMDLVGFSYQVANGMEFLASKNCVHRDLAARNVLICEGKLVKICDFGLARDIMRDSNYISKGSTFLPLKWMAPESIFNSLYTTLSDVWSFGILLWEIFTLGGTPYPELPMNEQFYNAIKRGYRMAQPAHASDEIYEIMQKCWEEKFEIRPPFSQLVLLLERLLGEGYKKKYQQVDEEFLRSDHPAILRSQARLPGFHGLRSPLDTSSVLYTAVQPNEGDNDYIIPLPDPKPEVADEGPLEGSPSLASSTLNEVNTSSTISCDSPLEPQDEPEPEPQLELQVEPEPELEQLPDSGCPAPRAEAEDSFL
reported_metric: IC50 (µM)
Enter your answer as a number in µM; do not include the unit.

Challenge: Specify reported IC50 for the compound shown: "CNC(=N)SCCCn1c(=O)c2c(c1=O)n1c3ccccc3cc1c1cccc3ccn2c31"
Response given: 6.7
